relative solubility at 100 uM: recorded values
# TEST_PARAMETERS: 100.0 µM
PROPERTY: relative solubility at 100 uM

- MOLECULE: "O=C(CCl)N1CCN(Cc2cccc(Cl)c2)CC1"
  PROPERTY: "relative solubility at 100 uM"
  RECORDED_VALUE: 1
- MOLECULE: "O=C(c1cc(=O)[nH]c2ccccc12)N1CCN(Cc2ccccc2)CC1"
  PROPERTY: "relative solubility at 100 uM"
  RECORDED_VALUE: 1
- MOLECULE: "O=C(CC(=O)Nc1ccncc1)Nc1ccccc1"
  PROPERTY: "relative solubility at 100 uM"
  RECORDED_VALUE: 1
- MOLECULE: "O=C(NCc1ccc(Cl)cc1CN1CCN(C(=O)CCl)CC1)[C@@H]1CCCOC1 (stereo in doubt)"
  PROPERTY: "relative solubility at 100 uM"
  RECORDED_VALUE: 1
- MOLECULE: "Cc1cc(-c2nc3ccccc3[nH]2)ccc1O"
  PROPERTY: "relative solubility at 100 uM"
  RECORDED_VALUE: 1
- MOLECULE: "Cc1ccc(S(=O)(=O)N2CCN(C(=O)c3cc(=O)[nH]c4ccc(Cl)cc34)CC2)cc1"
  PROPERTY: "relative solubility at 100 uM"
  RECORDED_VALUE: 0.88
- MOLECULE: "O=C(CCl)N1CCN(S(=O)(=O)c2ccsc2)CC1"
  PROPERTY: "relative solubility at 100 uM"
  RECORDED_VALUE: 1
- MOLECULE: "CS(=O)(=O)N(CCc1ccccc1)CC1CCN(C(=O)CCl)CC1"
  PROPERTY: "relative solubility at 100 uM"
  RECORDED_VALUE: 0.89
- MOLECULE: "O=C(Cc1cccc(Cl)c1)Nc1cnccc1O"
  PROPERTY: "relative solubility at 100 uM"
  RECORDED_VALUE: 1
- MOLECULE: "C=CC(=O)N(c1ccc(C2(C)CC2)cc1)C(C(=O)Nc1c(C)cccc1CC)c1cccnc1 (stereo not drawn)"
  PROPERTY: "relative solubility at 100 uM"
  RECORDED_VALUE: 0.68
- MOLECULE: "N#Cc1cccc(NC(=O)Nc2cccnc2)c1"
  PROPERTY: "relative solubility at 100 uM"
  RECORDED_VALUE: 1
- MOLECULE: "Cc1ccncc1NC(=O)CC1CCCNC1 (stereo not drawn)"
  PROPERTY: "relative solubility at 100 uM"
  RECORDED_VALUE: 1
- MOLECULE: "O=C(c1cc(=O)[nH]c2cc(F)ccc12)N1CCN(S(=O)(=O)c2ccccc2)CC1"
  PROPERTY: "relative solubility at 100 uM"
  RECORDED_VALUE: 0.99
- MOLECULE: "O=C(NCCc1ccc2c(c1)CCO2)NCc1cccc(N2C(=O)NC3(CCCC3)C2=O)c1"
  PROPERTY: "relative solubility at 100 uM"
  RECORDED_VALUE: 0.97
- MOLECULE: "CNC(=O)OC1CCN(Cc2ccccc2)CC1"
  PROPERTY: "relative solubility at 100 uM"
  RECORDED_VALUE: 1
- MOLECULE: "NS(=O)(=O)c1ccc(N2CCC(c3ccco3)CC2)cc1"
  PROPERTY: "relative solubility at 100 uM"
  RECORDED_VALUE: 0.83
- MOLECULE: "COc1ccccc1OCCNC(=O)c1cc(=O)[nH]c2ccccc12"
  PROPERTY: "relative solubility at 100 uM"
  RECORDED_VALUE: 0.96
- MOLECULE: "C=CC(=O)N(c1ccc(C(C)(C)C)cc1)C(C(=O)NC(C)C)c1cccnc1 (stereo not drawn)"
  PROPERTY: "relative solubility at 100 uM"
  RECORDED_VALUE: 1
- MOLECULE: "O=C(NCc1ccns1)Nc1cccc(CN2CCCC2=O)c1"
  PROPERTY: "relative solubility at 100 uM"
  RECORDED_VALUE: 0.97
- MOLECULE: "CC(=O)Nc1ccc(C#N)cc1CN1CCN(C(=O)CCl)CC1"
  PROPERTY: "relative solubility at 100 uM"
  RECORDED_VALUE: 1.01
- MOLECULE: "CCn1c(=O)n(CC(=O)Nc2c(C)ccnc2C)c2ccccc21"
  PROPERTY: "relative solubility at 100 uM"
  RECORDED_VALUE: 1
- MOLECULE: "C=CC(=O)N(c1ccc(C(C)(C)C)cc1)C(C(=O)NCc1ccccc1)c1cccnc1 (stereo not drawn)"
  PROPERTY: "relative solubility at 100 uM"
  RECORDED_VALUE: 0.89
- MOLECULE: "C=CC(=O)N(c1ccc(C(C)(C)C)cc1)C(C(=O)NC(C)(C)C)c1cncc(OC)c1 (stereo not drawn)"
  PROPERTY: "relative solubility at 100 uM"
  RECORDED_VALUE: 0.99

###

# MEASUREMENT_TARGET: SARS-CoV-2 Main Protease (SARS-CoV-2) (UniProt P0DTD1)
The threshold is 6 µM. Values of IC50 beneath it are tagged yes (1); values meeting or exceeding it are tagged no (0).

- COMPOUND: "CC(C)(C)c1ccc(N(C(=O)c2ccc(Cl)o2)C(C(=O)NCCc2cccc(F)c2)c2cccnc2)cc1 (stereo unspecified)"
  DISCRETE_LABEL: "yes (1)"
- COMPOUND: "Cc1ccncc1NC(=O)Cc1cccc(I)c1"
  DISCRETE_LABEL: "no (0)"
- COMPOUND: "Cc1ccncc1NC(=O)Cc1cc(Cl)cc(OCc2nnc(C3CCCCC3)o2)c1"
  DISCRETE_LABEL: "no (0)"
- COMPOUND: "C[C@H]1C[C@@H](C(=O)Nc2cncc3ccccc23)c2cc(Cl)ccc2O1 (stereo in doubt)"
  DISCRETE_LABEL: "no (0)"
- COMPOUND: "Cn1c(C(NC(=O)Cc2cc3ccccc3[nH]2)c2cccc(Cl)c2)nc2ccccc21 (stereo unspecified)"
  DISCRETE_LABEL: "no (0)"
- COMPOUND: "CC(C)CCN1C(=O)C(=O)c2cc(Br)ccc21"
  DISCRETE_LABEL: "no (0)"
- COMPOUND: "CC(C)(C)c1ccc(N(C(=O)c2cnc[nH]2)C(C(=O)NCCc2cccc(F)c2)c2cccnc2)cc1 (stereo unspecified)"
  DISCRETE_LABEL: "yes (1)"
- COMPOUND: "COc1ccc2c(c1)CN(C(=O)CCl)C(c1ccccc1)C2 (stereo unspecified)"
  DISCRETE_LABEL: "yes (1)"
- COMPOUND: "C=CC(=O)N(c1cc(C(C)(C)C)on1)C(C(=O)NCCc1cccc(F)c1)c1cncc(C#N)c1 (stereo unspecified)"
  DISCRETE_LABEL: "no (0)"
- COMPOUND: "O=C(CCl)N1CCN(Cc2cnc(Cc3ccccc3)s2)CC1"
  DISCRETE_LABEL: "no (0)"
- COMPOUND: "Cc1ccc(N(Cc2cccc(Cl)c2)C(=O)Cn2nnc3ccccc32)cc1"
  DISCRETE_LABEL: "yes (1)"
- COMPOUND: "O=C(Cn1nnc2ccccc21)N(Cc1ccsc1)c1ccc(N2CCCCC2)cc1"
  DISCRETE_LABEL: "no (0)"
- COMPOUND: "COc1c(Cl)cccc1OCCNC(=O)c1cc(=O)[nH]c2ccccc12"
  DISCRETE_LABEL: "no (0)"
- COMPOUND: "CC1CN(Cc2cccc(Cl)c2)CCN1C(=O)CCl (stereo unspecified)"
  DISCRETE_LABEL: "yes (1)"
- COMPOUND: "C=CC(=O)N(c1ccc2ncsc2c1)C(C(=O)Nc1cccc(CC)c1)c1cccnc1 (stereo unspecified)"
  DISCRETE_LABEL: "no (0)"
- COMPOUND: "O=C(NCC1=[SH]C=CC1)[C@@H](c1ccccc1)N1Cc2ccccc2C1=O (stereo in doubt)"
  DISCRETE_LABEL: "no (0)"
- COMPOUND: "O=C(c1cc(=O)[nH]c2ccccc12)N1CCN(c2ccc(F)cc2)CC1"
  DISCRETE_LABEL: "no (0)"
- COMPOUND: "O=C(Nc1cccc(F)c1)[C@@H](c1ccccc1)N1Cc2ccccc2C1=O (stereo in doubt)"
  DISCRETE_LABEL: "no (0)"
- COMPOUND: "COC(=O)c1c(C)nn(C(=O)c2cccs2)c1-c1snnc1C"
  DISCRETE_LABEL: "yes (1)"
- COMPOUND: "Cc1cccc(COC(=O)c2cccc3c2NC(=O)C3=O)c1"
  DISCRETE_LABEL: "no (0)"
- COMPOUND: "O=C(CCl)N1CCN(Cc2cc(O)ccc2O)CC1"
  DISCRETE_LABEL: "no (0)"
